Tested on: MDA-MB-231
ASSAY PROCEDURE: Antiproliferative activity human MDA-MB-231 cells assessed as inhibition of cell proliferation incubated for 24 hrs by MTT assay
Assay type: functional, cell-based
STUDY CONDITIONS: MDA-MB-231, 24 h

COMPOUND: COc1cc2cc(Oc3ccc4ccc(=O)oc4c3)c(=O)oc2cc1O [DAPHNORETIN]
UNIT TAG: µM
IC50: 1
